experiment: Apparent pKa of LNP formulations, TNS fluorescence assay
Assay type: physicochemical
condition.info: LNP cationic lipid/DSPC/cholesterol/DMG-PEG 50/10/38.5/1.5 mol %, pH 3 to 9
measurement.type: Apparant Pka

CCCCCCCCCCCCOCC(CN(CCCCCC(=O)OCC(CCCCCC)CCCCCCCC)CCN(CCO)C1CCC1)OCCCCCCCC (stereo not drawn); 5.943
CCCCCCCCCCCCCCCCOCC(CN(CCCCCC(=O)OCCCCCCCCCC)CCN(CCO)C1CCC1)OCCCCCC (stereo not drawn); 6.069
CCCCCCCCC(CCCCCC)CC(=O)OCC(CCCCN(CCN(CCO)CCCCC)C1CCC1)COC(=O)CC(CCCCCC)CCCCCCCC (stereo not drawn); 6.147

---

experiment: Lipid nanoparticle size and polydispersity by dynamic light scattering (Malvern Zetasizer Nano ZS)
Assay type: physicochemical
condition.info: LNP of cationic lipid/DSPC/cholesterol/PEG-lipid 50:10:38.5:1.5 with mRNA
measurement.type: size (nm)

CCCCCCCCCCCCOCC(CN(CCCCCC(=O)OCCCCCCCCCC)CCN(CCO)C1CCC1)OCCCCCCCC (stereo not shown) [Compound 48]; 79.39
CCCCCCCCC(CCCCCCCC)COC(=O)CCOCC(CN(C)CCN(CCO)C1CC1)OCCC(=O)OCC(CCCCCCCC)CCCCCCCC (stereo not shown) [Compound 70]; 78.45
CCCCCCCCC(CCCCCCCC)CC(=O)OCC(CCCCN(CCN(C)CCO)C1CCC1)COC(=O)CC(CCCCCCCC)CCCCCCCC [Compound 65]; 73.61
CCCCCCCCCCCCOCC(O)CN(CCCCCC(=O)OCC(CCCCCC)CCCCCCCC)CCN1CCCC1 (stereo not shown) [Compound 10]; 84.22
CCCCCCCCCCCCOCC(CN(CCCCCC(=O)OCC(CCCCCC)CCCCCCCC)CCN(CCO)C1CCCCC1)OC(C)=O (stereo not shown) [Compound 21]; 74.88
CCCCC/C=C\C/C=C\CCCCCCCC(=O)OCC(CCCCN(CCO)C1CCC1)COC(=O)CC(CCCCCC)CCCCCCCC (stereo not shown) [Compound 89]; 69.36
CCCCCCCCCCCCOCC(CN(CCO)C1CCC1)OCCCCCC(=O)OCC(CCCCCC)CCCCCCCC (stereo not shown) [Compound 4]; 54.52
CCCCCCCCCCC(=O)OCC(CCCCN(CC=C(C)C)CCO)COC(=O)CC(CCCCCC)CCCCCCCC (stereo not shown) [Compound 94]; 77.15

P. CCCCCCCCCCC(=O)OCC(CCCCN(CCO)C1CCCC1)COC(=O)CC(CCCCCC)CCCCCCCC (stereo not shown) [Compound 84]
Q. CCCCCCCCC(CCCCCCCC)CC(=O)OCC(CCCCN(CCO)C1CCC1)COC(=O)CC(CCCCCCCC)CCCCCCCC [Compound 56]
R. CCCCCCCCCCCCOCC(CN(C)CCN(CCO)C1CCC1)OC(=O)CCCC (stereo not shown) [Compound 40]
Incoming: Form: Sort by [size (nm)] Order [ ascending ] The response must list the labels following the requested ordering.
Outgoing: Q, P, R
(Q: 53.32 nm, P: 83.05 nm, R: 230 nm)

a. CCCCCCCCCCCCCCCCCCOCC(CN(CCCCCC(=O)OCCCCCCCCCC)CCN(CCO)C1CCC1)OCCCCCC (stereo not shown) [Compound 46]
b. CCCCCCCCCCCCOCC(CN(CCCCCC(=O)OCC(CCCCCC)CCCCCCCC)CCN1CCCCC1)OC(C)=O (stereo not shown) [Compound 9]
Incoming: Sort a and b by size (nm) descending and give the first. Write down the label of the entry you select.
Outgoing: a
(a: 103.3 nm, b: 70.97 nm)

---

experiment: Encapsulation efficiency of lipid nanoparticles, Quant-it Ribogreen RNA quantification assay
Format: physicochemical
condition.info: LNP with mRNA
measurement.type: Encapsulation Efficiency (%)

CCCCCCCCCCCCOCC(CN(CCCCCC(=O)OCC(CCCCCC)CCCCCCCC)CCN(CCO)C1CC1)OCCCCCCCC (stereo not shown); 89.60
CCCCCCCCC(CCCCCC)CC(=O)OCC(CCCCN(CCN(CC)CCO)C1CCC1)COC(=O)CC(CCCCCC)CCCCCCCC (stereo not shown); 91.81
CCCCCCCCCCCCCCOC(COCCCCCCCCCCCC)CN(CCCCCC(=O)OCCCCCCCCCC)CCN(CCO)C1CCC1 (stereo not shown); 91.3
CCCCCCCCCCCCOCC(CN(CCCCCC)CCN(CCO)C1CCC1)OCCCCCCCCCCCC (stereo not shown); 89.8

---

experiment: Lipid nanoparticle size and polydispersity by dynamic light scattering (Malvern Zetasizer Nano ZS)
Assay type: physicochemical
condition.info: LNP of cationic lipid/DSPC/cholesterol/PEG-lipid 50:10:38.5:1.5 with mRNA
measurement.type: size (nm)

CCCCCCCCC(CCCCCCCC)CNC(=O)CCOCC(CN(C)CCN(CCO)C1CCC1)OCCC(=O)NCC(CCCCCCCC)CCCCCCCC (stereo not drawn) [Compound 51]; 75.11
CCCCCCCCCCCCOCC(CN(C)CCN(CCO)C1CCCCC1)OCCCCCC (stereo not drawn) [Compound 45]; 68.33
CCCCCCCCC(CCCCCCCC)COC(=O)CCOCC(CN(C)CCN(CCO)C1CCCC1)OCCC(=O)OCC(CCCCCCCC)CCCCCCCC (stereo not drawn) [Compound 71]; 76.45
